Hello, the source for this data is patent US20220356229A1, in case you need it.

Entries annotated with measured median fluorescence intensity, fold over isotype control
molecular target: SARS-CoV-2 full length Spike protein, wild type, expressed on CHO cells (SARS-CoV-2, UniProt P0DTC2 14-1273)
Hi! Could you send only the number? It should be in fold over isotype, unit omitted.

BINDER	READOUT UNIT	RESULT
anti-SARS-CoV-2 antibody 1585 (antibody, V domains shown) VH: QVQLVESGGGVVQPGRSLRLSCAASGFTFSRFTLHWVRQAPGKGLEWVAVISYDGSNKYYADSVKGRFTISRDNSKSTLYLQMNSLRAEDTGVYYCARDPSTVTGYFDYWGQGTLVTVSS VL: SYVLTQPPSVSVAPGKTAKISCGGDSIGSKSVHWYQQKPGQAPVLVIYYDNDRPSGIPERFSGSNSGNTATLTISRVEAGDEADYYCQVWDIGVVFGGGTKLTVLG	fold over isotype	9.55

Would you kindly look at the next entry?
Query: So what does the record say about median fluorescence intensity, fold over isotype control for anti-SARS-CoV-2 antibody 1495 (antibody, V domains shown) VH: QVQLVESGGGVVQPGRSLRLSCTASGFTFSSYAMHWVRQAPGKGLEWVAVISYDGNNKYYGDSVKGRFTISRDNSKNTLYLQMNSLRAEDTAVYYCAKGADTPHYSGYHFLSVGYYFYGMDVWGQGTTVTVSS VL: DIQMTQSPSSLSASVGDRVTITCRASQSISYYLNWYQQKPGKAPQLLIYAASSLQSGVPSRFSGSRSGTDFTLTISSLQPEDFATYYCQQSYSTPFTFGPGTKVDIKR ?
Response: 57.3
